Test: probe aShh binding to arrayed compounds – biochemical, biotinylated probe, 635/667 nm fluorescence, primary screen (AID 1114);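 note: probe is biotin-labelled aShh protein from a stem cell growth factor screen; measures binding of labelled protein to compounds printed on the slide; score merges feature fluorescence at 667 nm with signal-to-noise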
Conditions: small-molecule microarray, higher = more signal
Hi, to clarify the labels: True covers composite z-score from 0.08 upward, False covers anything below 0.08.

MOLECULE | CLASSIFICATION
C=C(/C(=C/C[C@@H](OC(=O)c1ccncc1)c1cccc(OCCO)c1)c1cc(C(=O)OC)ccc1OC)C(C)C | True
COC(=O)C(CC#Cc1ccc2c(c1)[C@]1(C(=O)N2)[C@H](c2ccc(OCCO)cc2)N2[C@H](c3ccccc3)[C@H](c3ccccc3)OC(=O)[C@H]2[C@@H]1C(=O)O)C(=O)OC | True
C=CCC(OC(C)=O)[C@@H]1[C@@H](N(Cc2ccc(-c3ccccc3)cc2)C(=O)Cc2ccc(OC)cc2)c2cc(OCCCO)ccc2N1C(=O)c1ccc(-c2ccccc2)cc1 (some centres undefined) | False
CCCCCCCCCCC(O)C1C=CC2C(=O)NC(=O)C2N1Nc1ccccn1 (centres undefined) | True
CCCCC(=C=CC[C@H](O)c1ccccc1OCCO)C[C@H](O)c1ccccn1 | False
O=C1N(Cc2ccccc2)c2ccccc2[C@H]2OC(c3ccc(OCCCO)cc3)=N[C@@]12CCS(=O)(=O)c1ccccc1 | True
CCCCC(=C=CC[C@H](O)c1cccc(OCCO)c1)C[C@H](O)COCc1ccccc1 | False
C=CCOC(=O)[C@H]1[C@@H]2C(=O)O[C@@H](c3ccccc3)[C@@H](c3ccccc3)N2[C@@H](c2ccc(OCCOC(=O)[C@H]3C[C@H]4C(=O)N[C@@H](CCCCN(C)C)C(=O)N4[C@H]3c3ccc(O)cc3)cc2)[C@]12C(=O)Nc1ccccc12 | False
CN(C)C(=O)[C@@]1(CCC(=O)OC(C)(C)C)N=C(c2ccc(OCCCO)cc2)O[C@H]1c1ccccc1N=[N+]=[N-] | True
CCCC=C(CCC)[C@@H](NS(=O)(=O)CC)c1ccccc1 | True
COc1ccc(C(=O)Nc2ccc(CN3C(=O)[C@@]4(O[C@@H](CC(=O)N5Cc6ccccc6C[C@H]5CO)[C@H]([Si](C)(C)c5ccc(OC)cc5)[C@H]4C)c4ccccc43)cc2)cc1 | False
COCCCNC(=O)[C@@H]1c2ccccc2C(=O)N(Cc2cc(F)cc(C(F)(F)F)c2)[C@H]1c1ccc(CO)cc1 | False
CN(C)C(=O)[C@]1(Cc2ccccc2N=[N+]=[N-])N=C(c2ccc(OCCCO)cc2)O[C@@H]1c1ccccc1CN=[N+]=[N-] | True

----------
Molecular target: Streptavidin (Streptomyces avidinii) (UniProt P22629)
Sequence (P22629 whole entry, looked up): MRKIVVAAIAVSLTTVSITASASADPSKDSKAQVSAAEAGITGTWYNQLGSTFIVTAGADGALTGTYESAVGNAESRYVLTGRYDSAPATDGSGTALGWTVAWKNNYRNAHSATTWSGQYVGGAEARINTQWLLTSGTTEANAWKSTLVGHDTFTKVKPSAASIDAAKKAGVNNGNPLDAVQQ
Assay: compounds binding control protein streptavidin – biophysical, small-molecule microarray, 635/667 nm fluorescence, artefact control for SMM compound annotation, primary screen (AID 1147);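 note: signal reflects streptavidin binding to arrayed compounds as a control protein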
Details: higher = more signal
Hi, to clarify the labels: true covers composite z-score from 0.2 upward, false covers anything below 0.2.

SMILES | CLASSIFICATION
Cc1ccc(S[C@]2(C(=O)NCc3ccccc3)CC(=O)N(C3Cc4ccccc4C3)[C@@H]2c2ccc(CO)cc2I)cc1 | false
C[N+](C)(C)CCCC[C@@H]1NC(=O)[C@@H]2C[C@H](C(=O)O)[C@H](c3cccc(OCCO)c3)N2C1=O | false
C=C(COC)C(=O)CC[C@H](OC(=O)c1ccccc1-c1ccccc1C(=O)O)c1ccc(CO)o1 | false
COc1ccc(C#Cc2ccc3c(c2)[C@]2(C(=O)N3)[C@H](C(=O)O)[C@H]3C(=O)O[C@H](c4ccccc4)[C@H](c4ccccc4)N3[C@@H]2c2ccc(OCCO)cc2)cc1 | true
COc1ccc(C(=O)Nc2ccc3c(c2)[C@]2(O[C@@H](CCO)[C@H]([Si](C)(C)c4ccc(OC)cc4)[C@H]2C)C(=O)N3Cc2ccccc2)cc1 | true
CCCN1C(=O)[C@@]2(Cc3ccccc3)N=C(c3ccc(OCCCO)cc3)O[C@H]2c2ccccc21 | false

----------
Overview of reported z-score across a group of compounds:
Assay: hepatitis C replication reporter changes, two-sided – Huh7 cells, luciferase reporter, HCV replication inhibitor project, primary screen (AID 1109);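 note: huh7 hepatoma cells harbouring a luciferase neomycin HCV replicon reporter; luciferase luminescence as measure of HCV replicon replication; test concentration not given here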
Details: Huh7 HCV replicon luciferase reporter, 48 h; higher = more signal

COMPOUND | z-score
CO[C@H]1O[C@H](CO)[C@@H](OC(=O)Nc2cccc(F)c2)[C@H](OC(=O)Nc2ccc3c(c2)OCO3)[C@H]1OC(=O)Nc1ccc2c(c1)OCO2 | -1.37
CC(=O)NCCCC[C@@H]1NC(=O)[C@H]2C[C@@H](C(=O)NCCCCCN)[C@@H](c3cccc(OCCO)c3)N2C1=O | 0.572
COCC(=C=CC[C@@H](O)c1ccccc1OCCO)C[C@@H](O)c1ccccn1 | -0.979
O=C(Nc1cc(Br)ccc1C(=O)NCc1cccc(O)c1)c1ccccc1 | -2.32
COC(=O)C(CC#Cc1ccc2c(c1)[C@]1(C(=O)N2)[C@H](C(=O)N2CCc3cc(OC)c(OC)cc3C2)[C@H]2C(=O)O[C@H](c3ccccc3)[C@H](c3ccccc3)N2[C@@H]1c1ccc(O)cc1)C(=O)OC | -1.06
COC(=O)[C@@]1(Cc2ccc(F)cc2)[C@@H]2[C@@H](CC(=O)[C@H]2CC(=O)C(=O)N2CCCC2)CN1C(=O)c1ccccc1 | -2.01
CC1CC/C=C\[C@H]2OC34C=CCN(Cc5ccccc5)C(=O)[C@H]3N(CCO)C(=O)[C@@H]4C2C(=O)O1 (some centres not stated) | -0.0892

----------
Overview of reported composite z-score across a group of compounds:
Target: Fibroblast growth factor 10 (Homo sapiens)
Experiment: compounds binding fibroblast growth factor 10 – biochemical, small-molecule microarray, 635 nm fluorescence, primary screen (AID 1102)
Details: FGF10 binding, fluorescence 635 nm, higher = more signal

COMPOUND | composite z-score
C=C(C)[C@@H]1CC=C(C(O)C2C=CC3C(=O)N(C4CCCCC4)C(=O)C3N2Nc2ccc(OC)cc2)CC1 (stereo not given in full) | 1.03
COc1ccc([Si](C)(C)[C@H]2[C@H](CC(=O)N3CCC[C@H]3CO)O[C@@]3(C(=O)N(Cc4ccc(N5C(=O)c6cccc7cccc5c67)cc4)c4ccccc43)[C@@H]2C)cc1 | 0.651
C=C(/C(=C/C[C@@H](OC(=O)c1ccncc1)c1ccccc1OCCO)c1cnc2ccccc2c1)C(C)C | 1.55
Cc1ccc(S[C@]2(C(=O)NCC(C)C)CC(=O)N(C3CCCCC3)[C@@H]2c2ccc(CO)cc2I)cc1 | 0.231
CC(C)(C)OC(=O)CC[C@]1(C(=O)O)COC(c2ccc(OCCCO)cc2)=N1 | -0.577
COC(=O)[C@@]1(Cc2ccc(OC)cc2)[C@H]2c3cc(C(=O)N(C)C)n(CCF)c3C[C@H]2CN1C(=O)c1ccccc1 | 0.601
O=C1CSC(c2cccc([N+](=O)[O-])c2)N1c1ccccc1 (stereo not given) | 0.523
COCCCNC(=O)[C@@]1(Cc2ccccc2I)c2ccccc2C(=O)N(Cc2ccccc2Cl)[C@H]1c1ccc(CO)cc1 | -0.0568
CC(=O)NCCCC[C@@H]1NC(=O)[C@@H]2C[C@H](C(=O)NCCCC[N+](C)(C)C)[C@H](c3cccc(OCCO)c3)N2C1=O | 0.766
CCCCC(O)C1C=CC2C(=O)N(Cc3ccccc3)C(=O)C2N1n1cnnc1 (stereo not given) | 0.303
CCN(CC)c1ccc(N2CC=CC34O[C@@H]5/C=C\CCCOC(=O)C5[C@H]3C(=O)N(CCCCCO)[C@@H]4C2=O)cc1 (stereo not given in full) | -1.47
COc1cc(C(O)C2C=CC3C(=O)NC(=O)C3N2Nc2ccc(Cl)cc2Cl)cc(OC)c1OC (stereo not given) | 0.746
COC(=O)[C@]1(Cc2ccccc2N=[N+]=[N-])N=C(c2ccc(OCCCO)cc2)O[C@@H]1c1ccccc1 | -0.261
CCN(CC)c1ccc(N2CC=CC34O[C@@H]5/C=C\CCCOC(=O)C5[C@H]3C(=O)N(CCCCCCO)[C@@H]4C2=O)cc1 (stereo not given in full) | -0.983
COCCCNC(=O)[C@]1(Cc2ccccc2CN=[N+]=[N-])N=C(c2ccc(OCCCO)cc2)O[C@@H]1c1ccccc1CN=[N+]=[N-] | 0.944
COc1ccc(C(=O)Nc2ccc(CN3C(=O)[C@]4(O[C@H](CCn5cc([C@H](O)c6ccccc6)nn5)[C@@H]([Si](C)(C)c5ccc(OC)cc5)[C@@H]4C)c4ccccc43)cc2)cc1 | -0.09
COC(=O)C(CC#Cc1ccc2c(c1)[C@]1(C(=O)N2)[C@H](c2ccccc2OCCO)N2[C@H](c3ccccc3)[C@H](c3ccccc3)OC(=O)[C@H]2[C@@H]1C(=O)Nc1nc2ccccc2s1)C(=O)OC | 1.3
CCCCCCC#C[Si](O[C@H](c1ccccc1)c1cn(Cc2cccc(Cl)c2)nn1)(C(C)C)C(C)C | 0.155
O=C1NC(=O)C2C1C=CC(C(O)c1ccc(-c3ccccc3)s1)N2Nc1ccccn1 (stereo not given) | 0.475
COc1ccc([Si](C)(C)[C@H]2[C@H](CCn3cc(CCO)nn3)O[C@@]3(C(=O)N(Cc4cccc(N5C(=O)c6cccc7cccc5c67)c4)c4ccccc43)[C@@H]2C)cc1 | 1.27
C=C(COC)C(=O)CC[C@H](OC(=O)c1ccccc1-c1ccccc1C(=O)O)c1ccc(OCCO)cc1 | 1.35
COC(=O)[C@]1(Cc2ccccc2CN=[N+]=[N-])N=C(c2ccc(OCCCO)cc2)O[C@@H]1c1ccccc1 | -1.34
CCCCC(=C=CC[C@H](O)c1ccccc1OCCO)C[C@H](O)c1ccccn1 | 0.551
CCCCC(CC)C(O)C1C=CC2C(=O)NC(=O)C2N1Nc1ccccn1 (stereo not given) | 0.327
COCC(=C=CC[C@@H](O)c1ccccc1OCCO)C[C@@H](O)c1ccccn1 | 0.457
C=CCNC(=O)[C@@H]1[C@H]2C(=O)O[C@H](c3ccccc3)[C@H](c3ccccc3)N2[C@H](c2ccc(O)cc2)[C@@]12C(=O)Nc1ccc(C#CCCO)cc12 | -0.861
CC1CC/C=C\[C@H]2OC34C=CCN(Cc5ccccc5)C(=O)[C@H]3N(CCO)C(=O)[C@@H]4C2C(=O)O1 (stereo not given in full) | 0.237
CCCCC=C[C@@H](NC(=O)CCc1ccccc1)c1ccccc1 | 0.919
CCOc1cc(C(O)C2C=CC3C(=O)NC(=O)C3N2Nc2ccccn2)ccc1O (stereo not given) | 0.592
COCCOC(=O)N1C(=O)[C@@]2(c3ccccc31)[C@H](c1ccccc1OCCO)N1[C@H](c3ccccc3)[C@H](c3ccccc3)OC(=O)[C@H]1[C@@H]2C(=O)N1CCc2cc(OC)c(OC)cc2C1 | 0.658
